Test system: SF-268 CNS
method description: NCI tumour cell line growth inhibition, 48 h
Peptide text beside a SMILES is read from it. * marks the point of attachment. Boc = CC(C)(C)OC(=O)*; OBn = c1ccc(CO*)cc1
Exercise: for every item that follows, state its recorded TGI.

Consider the reported TGI for these molecules:
molecule	measured property	test value
Cn1c(Nc2ccccc2)c(C=Nc2ccccc2)c(=O)n(C)c1=O	TGI	> 100 µM
O=c1[nH]ccc2nc(N3CCC(O)CC3)nc(Nc3cccc(C(F)(F)F)c3)c12	TGI	35.3 µM
Cc1cc(N2CCCC2)nc(NC2CCCC(Nc3ccnc4cc(Cl)ccc34)C2)n1 (configuration not stated)	TGI	3.46 µM
CN(/N=C/c1ccccn1)C1=NCCCCN1	TGI	> 100 µM
Cc1nc2cc(N)c(F)cc2[nH]1	TGI	> 100 µM
COc1ccc(-c2nc3ncccn3c2/C=C/C(=O)c2cc(OC)c(OC)c(OC)c2)cc1	TGI	9.62 µM
CC(C)CNc1nc(-c2ccccc2)nc2ccccc12	TGI	37.4 µM
C[C@H]1C[C@H](C)c2ccccc2N(C)C1=Nc1ccccc1	TGI	> 100 µM

I'm hoping you can list TGI for every molecule here, please.
1. CC(NC(=O)CNC(=O)OC(C)(C)C)C(=O)NC(Cc1ccccc1)C(=O)OCc1ccccc1 (stereo not drawn) (Boc-Gly-Ala-Phe-OBn; configuration not given here)
2. CC(=O)OC1COC(n2c(-c3ccc(Cl)cc3)cc(-c3ccccc3)c(C#N)c2=S)C(OC(C)=O)C1OC(C)=O (configuration not stated)
3. Cc1cccc(C)c1NC(=S)NC=C(C(N)=O)C(N)=O
4. CCCCCC(CO)C(O)(C(F)(F)F)C(F)(F)F (configuration not stated)
5. COc1cc(NP(=O)(Oc2ccccc2)Oc2ccccc2)ccc1Nc1c2ccccc2nc2c1[nH]c1ccccc12

1. > 100 µM
2. > 39.3 µM
3. > 100 µM
4. > 10 µM
5. > 100 µM

I'm hoping you can list TGI for every molecule here, please.
1. CCCn1c(SCC)c2cc3cc4ccccc4cc3cc2c1-c1nc(F)nc(F)n1
2. c1ccc(Nc2nnc(Cn3ccc4ccccc43)s2)cc1
3. COc1ccc(C2=C(c3ccc(OC)c(OC)c3)C(=O)OC2)cc1
4. CCOC(=O)c1c(-c2ccc(O)c(OC)c2)c(C#N)c(=S)n(C2OC(COC(C)=O)C(OC(C)=O)C(OC(C)=O)C2OC(C)=O)c1-c1ccccc1 (configuration not stated)

> 100 µM
> 100 µM
> 91.7 µM
> 100 µM

###

Test system: UO-31 renal
method description: NCI tumour cell line growth inhibition, 48 h
measured property: TGI

compound	TGI
CCC1=CC2Cc3nc4cc(Cl)ccc4c(N)c3C(C1)C2 (centres undefined)	20.6 µM

I'm hoping you can list TGI for every compound here, please.
1. C#C[C@]1(O)CCC2C3CCc4cc(Oc5nc(F)nc(-c6c7cc8ccccc8cc7c7n6CCS7)n5)ccc4C3CCC21C (some centres undefined)
2. c1cn2cc(-c3ccc4ncn(C5CCCCC5)c4c3)nc(-c3ccc4c(c3)ncn4C3CCCCC3)c2n1
3. CCOC(=O)[C@@H]1ON2O[C@H](OC3CCCC3(c3ccccc3)c3ccccc3)C[C@H]3OC(=O)[C@@H]1C32 (some centres undefined)
4. CC(=O)OCC1OC(N2C(C)=C(C(C)=O)C(c3ccco3)C(C#N)=C2S)C(OC(C)=O)C(OC(C)=O)C1OC(C)=O (centres undefined)

1. > 100 µM
2. 2.85 µM
3. > 100 µM
4. > 100 µM

I'm hoping you can list TGI for every compound here, please.
1. COc1cc(NCc2ccc3nc(OC)c(OC)nc3c2)cc(OC)c1OC
2. O=C(c1cccs1)N(C(=S)N1CCN(c2ccccn2)CC1)C1CCCCC1

1. > 100 µM
2. > 100 µM

I'm hoping you can list TGI for every compound here, please.
1. COc1cccc(-c2nc3sccn3c2-c2ccnc(NCCNS(=O)(=O)c3ccccc3)c2)c1
2. COc1cccc2c(Nc3ccc(S(=O)(=O)NC(C)=O)cc3)c3ccc([N+](=O)[O-])cc3nc12

["6.65 µM", "> 100 µM"]

###

Exercise: for every item that follows, state its recorded TGI.
Tested on: HL-60(TB) leukemia
method description: NCI tumour cell line growth inhibition, 48 h

Consider the reported TGI for these compounds:
compound smiles	test value
Cc1cc2cc3c(C)cc(=O)oc3c(C)c2o1	> 100 µM
NC(=S)N/N=C(\C(=O)Nc1cccc([N+](=O)[O-])c1)c1nc2ccc([N+](=O)[O-])cc2[nH]c1=O	> 100 µM

What measured TGI goes with `CSc1nc(NC(=O)O)c(N(C(C)=O)C(=O)O)c(=O)n1C` ?
> 100 µM

###

Test system: TK-10 renal
method description: NCI tumour cell line growth inhibition, 48 h
Short version: TGI at least 30 µM is TRUE, less is FALSE.

compound	qualitative label
CCOC(=O)[C@@H]1ON2O[C@H](OC3CCCC3(c3ccccc3)c3ccccc3)C[C@H]3OC(=O)[C@@H]1C32 (stereo partly drawn)	TRUE
O=[N+]([O-])c1ccc(Nc2nc3ccccc3s2)cc1	TRUE
COc1ccc(-c2c(CN3CCOCC3)sc3nc4ccccc4n23)cc1	TRUE
Cc1ccc(NC(=O)CC(=O)n2nc(-c3ccccc3)c(N=Nc3ccccc3Cl)c2-c2ccccc2)cc1	TRUE
COc1cccc(-c2nc3sccn3c2-c2ccnc(NCCNS(=O)(=O)c3ccccc3)c2)c1	TRUE
C/C(=N/O)c1cccc(Nc2nc3ccc(Cl)cc3c3[nH]c4ccccc4c23)c1	FALSE

Does CCC1=CC2Cc3nc4cc(Cl)ccc4c(N)c3C(C1)C2 (stereo not drawn) have a reported TGI of at least 30 µM?
FALSE

###

System: SK-MEL-5 melanoma
method description: NCI tumour cell line growth inhibition, 48 h; in the data active = GI50 below about 0.43 µM; inactive = the rest
The categories you may choose from are True = active, False = inactive

Answered cases to consult:
compound	qualitative label
C=CCN(CC=C)C(=O)c1cc(C)nc2c1c(=O)n(-c1ccccc1)c(=O)n2CC(O)CN1CCN(c2ncccn2)CC1 (stereo unspecified)	False
CCCCCCCCCCC(O)C1CCC(C(O)CCC(O)C2CCC(CCCCCCC[C@H](O)CC3=C[C@@H](C)OC3=O)O2)O1 (stereo partly specified)	False
CC(C)CNc1nc(-c2ccccc2)nc2ccccc12	False
NC(=N\N=C/c1cccc([N+](=O)[O-])c1)/C(N)=N\N=C/c1cccc([N+](=O)[O-])c1	False
COc1cc2c(cc1OCCCCCCN1CCN(c3ncnc4ccccc34)CC1)N=CC1CCCN1C2=O (stereo unspecified)	True
O=C([O][Hg][CH2]C1COCC([CH2][Hg][O]C(=O)c2ccccc2)O1)c1ccccc1 (stereo unspecified)	False
O=S(=O)(c1ccc(N=C2NN=C(c3c[nH]c4ccccc34)CS2)cc1)N1CCOCC1	False
O=c1[nH]ccc2nc(N3CCC(O)CC3)nc(Nc3cccc(C(F)(F)F)c3)c12	False

Assay outcome for `COc1ccc2c(CN3CCC[C@H]3C(=O)O)cc3cc4c(cc3c2c1)OCO4` : what was it?
False

Assay outcome for `O=C([CH-]C(=O)c1ccccc1)c1ccccc1.O=C([CH-]C(=O)c1ccccc1)c1ccccc1.O=C([CH-]C(=O)c1ccccc1)c1ccccc1.[OH3+].[Y+3]` : what was it?
False

Assay outcome for `COc1ccc(-c2ccc(-c3ccc(C(=N)N)s3)s2)cc1Cl` : what was it?
False

###

Test system: SF-539 CNS
method description: NCI tumour cell line growth inhibition, 48 h
measured property: TGI (µM)
Answers are plain numbers, in µM.

compound smiles	TGI (µM)
N#Cc1c(Cl)c2ccccc2n2c1nc1ccccc12	42.8

What measured TGI goes with `COc1ccc(CNc2c3ccccc3nc3ccc(OC)cc23)cc1` ?
4.13

###

System: U251 CNS
measured property: GI50

Consider the reported GI50 for these compounds:
compound	GI50
Cc1cc(N2CCCC2)nc(NC2CCCC(Nc3ccnc4cc(Cl)ccc34)C2)n1 (stereo not given)	1.48 µM
O=C(CC12CC3CC(CC(C3)C1)C2)NCCOCCOCCOCCNC(=O)c1cc2c(o1)C(=O)c1ccccc1C2=O	1.53 µM
Nc1ccc2c3c(n(CCCCl)c(=O)c2c1)-c1cc2c(cc1C3=O)OCO2	> 100 µM

I'm hoping you can list GI50 for every compound here, please.
1. CCCN1CCN(c2ccc3nc(-c4ccc5nc(-c6cc(OC)ccc6OC)[nH]c5c4)[nH]c3c2)CC1
2. CCOc1ccc(Nc2nc(-c3ccc4c(c3)NC(=O)CO4)cs2)cc1

1: 1.69 µM; 2: 10.7 µM

###

Tested on: EKVX NSCLC
method description: NCI tumour cell line growth inhibition, 48 h
measured property: TGI

Consider the reported TGI for these compounds:
compound	TGI
NC(CCP(=O)(O)CCC1C=CC=CC1)C(=O)O (centres undefined)	> 100 µM
Nc1ncn(C2C=C(CO)C(O)C2O)c(=O)n1 (centres undefined)	> 100 µM
C(=NCc1ccccc1)c1ccccc1-c1ccccc1C=NCc1ccccc1	> 10 µM
O=c1cc(CBr)c2ccc(O)cc2o1	91.1 µM

I'm hoping you can list TGI for every compound here, please.
1. COc1cc2cc(C(=O)Nc3cc(N)c4ccccc4c3CCCl)[nH]c2c(OC)c1OC
2. COC(=O)C1[C@@H](C(=O)OC)C12C=Cc1ccccc1C=C2 (some centres undefined)
3. Cc1cc(C)nc(NS(=O)(=O)c2ccc(Nc3c4ccc(Cl)cc4nc4c(C(=O)Nc5ccc(S(=O)(=O)N=C(N)N)cc5)cccc34)cc2)n1
4. CC(=O)NC1C(O)C(O)C(CO)OC1n1ncc(=O)[nH]c1=O (centres undefined)
5. CN(C(=O)Cc1ccc(Cl)c(Cl)c1)[C@@H]1CCCC[C@H]1[N+]1(C)CC=CC1

0.517 µM
> 100 µM
> 100 µM
> 100 µM
> 100 µM

I'm hoping you can list TGI for every compound here, please.
1. Cc1cc(N2CCCC2)nc(NC2CCCC(Nc3ccnc4cc(Cl)ccc34)C2)n1 (centres undefined)
2. c1ccc2c(c1)-c1ccccc1C2N1CC2CCC(CC2)C1

1. 5.02 µM
2. 51 µM

I'm hoping you can list TGI for every compound here, please.
1. COc1ccc(NC(C)=O)cc1C1CCC(=O)N1 (centres undefined)
2. COc1ccc(C2=C(c3ccc(OC)c(OC)c3)C(=O)OC2)cc1
3. COc1cc(C(=O)C/C(CCC(=O)Nc2ccc(Cl)cc2C)=N/NC(=O)C(N)=O)ccc1O

["> 100 µM", "> 100 µM", "> 100 µM"]
